- target-or-system: Microphthalmia-associated transcription factor (Homo sapiens) (UniProt O75030)
- Sequence (O75030 whole entry, looked up): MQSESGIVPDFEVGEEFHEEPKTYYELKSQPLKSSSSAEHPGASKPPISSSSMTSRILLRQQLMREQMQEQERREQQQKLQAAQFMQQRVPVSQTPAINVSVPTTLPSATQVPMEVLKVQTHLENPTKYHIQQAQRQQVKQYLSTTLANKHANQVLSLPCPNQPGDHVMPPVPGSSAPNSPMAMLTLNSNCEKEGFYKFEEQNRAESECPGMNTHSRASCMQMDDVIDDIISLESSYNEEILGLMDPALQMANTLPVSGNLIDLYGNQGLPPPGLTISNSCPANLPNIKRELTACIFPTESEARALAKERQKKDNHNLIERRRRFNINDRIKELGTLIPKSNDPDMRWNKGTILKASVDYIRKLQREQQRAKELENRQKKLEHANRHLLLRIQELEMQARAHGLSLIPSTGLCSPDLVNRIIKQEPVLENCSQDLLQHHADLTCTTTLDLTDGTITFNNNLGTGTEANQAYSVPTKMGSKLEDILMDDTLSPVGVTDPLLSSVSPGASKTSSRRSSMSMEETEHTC
- experiment-summary: MITF inhibitors, primary screen, biochemical, AlphaScreen, human (AID 1259374);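 note: 0% = vehicle wells with protein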
- measurement-conditions: AlphaScreen MITF homodimerization, bead proximity signal; at 2.6 µM; active compounds read high
Hit rate of the full screen: of about 650,000 compounds, about 5,900 (0.91%) were called active. Many of the other results were omitted from the sample, so actives are more common in it than they were.
quantity-name: inhibition (%)
One number for each entry, in %.

Solved cases below.
>>> df
                                   compound  quantity_name  quantitative_readout
0  CC1C2Oc3ccccc3C1Oc1ccccc12 (stereo not given)     inhibition                  4.85
1  Cc1ccc(C)c(NC(=S)N(Cc2ccccc2C)CC2CCC(C(=O)O)CC2)c1 (stereo not given)     inhibition                  13.3
2  Cc1ccc(NC(=O)C2C3C=CC4(O3)C2C(=O)N(C2CCCCCCC2)C4C(=O)NC2CCCCC2)cc1Cl (stereo not given)     inhibition                 -0.34

Provide reported inhibition for each item, in the same order as listed.
1. COc1cc(C(=O)Nc2cnc(NC(=O)c3ccccc3)cc2C)cc(OC)c1OC
2. O=C(Nc1nccs1)C(c1ccccc1)c1ccccc1
3. Cc1c(C(=O)C(=O)N2CCCC2)c2ccccc2n1C

[12.9, -0.78, -1.62]

Working through the 7 compounds below one at a time, give inhibition for each.
1. CCCOc1cccc(C(=O)Nc2ccc3oc(-c4cccc5c(Br)cccc45)nc3c2)c1
2. COc1cc(C2C3=C(Nc4[nH]c(=O)[nH]c(=O)c42)C(=O)CC(C)(C)C3)ccc1O (stereo not given)
3. C=CCNC(=O)c1sc(=S)n(CC)c1N
4. Cc1ccc(OCC(=O)N/N=C/c2cc(C)ccc2O)cc1
5. O=c1c2ccccc2nc(-c2ccc(Cl)cc2)n1CCCCOc1ccccc1F
6. CCN1CCN(CCCCOc2ccccc2F)CC1
7. CCN1CCN(CCCOc2ccc(C(C)=O)cc2OC)CC1

[3.22, -4.39, 60.2, 15.3, -6.63, 63.7, 77.9]

Respectfully, I request inhibition for each entry included below.
1. O=C(O)CN1C(=O)/C(=C\c2cccc(C(=O)O)c2)SC1=S
2. O=C1OC(c2ccc(F)cc2)=N/C1=C/c1ccc([N+](=O)[O-])cc1
3. CNC(=O)/C(C#N)=C/c1cn(CC(=O)NCCOC)c2ccccc12
4. COc1ccc2c(c1)CC(C(=O)Nc1ccc(-c3cn[nH]c3)cc1OC(C)CN(C)C)CO2 (stereo not given)
5. Cc1ccc(C2/C(=C(/O)c3ccc(Cl)cc3)C(=O)C(=O)N2CCN(C)C)cc1 (stereo not given)
6. COCCOC(=O)c1sc(=S)n(CCOC)c1N
7. COc1ccc2c(c1)CC(C(=O)Nc1ccc(-c3cn[nH]c3)cc1OCCN(C)C)CO2 (stereo not given)

[58.4, 5.42, 5.66, 13.3, -18.6, -3.44, 3.86]

---

For each record, write down the corresponding inhibition.
- target-or-system: Microphthalmia-associated transcription factor (Homo sapiens) (UniProt O75030)
- experiment-summary: MITF inhibitors, primary screen, biochemical, AlphaScreen, human (AID 1259374);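 note: 0% = vehicle wells with protein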
- measurement-conditions: AlphaScreen MITF homodimerization, bead proximity signal; at 2.6 µM; active compounds read high
Screen size: about 650,000 compounds; about 5,900 (0.91%) were called active. This is one part of a sample in which actives are shown more often than they occur.

Study these solved cases before continuing.
In [3]: df
Out[3]:
                                   compound             result
0  CN1C(=O)c2ccc(NC(=O)c3c(F)cccc3F)cc2C1=O   4.14% (inactive)
1    c1ccc(Nc2cc(NCc3ccc4c(c3)OCO4)ncn2)cc1  -2.56% (inactive)
2  CN(C)CCNC(=O)c1ccc(-c2cnc3c(NCc4ccc(F)cc4)nccn23)cc1  -23.3% (inactive)
3         Cn1cnnc1SCC(=O)N1CCN(c2ccccc2)CC1   1.28% (inactive)

Each compound below has a recorded value; state its inhibition.
1. CC(C)OC(=O)C1=c2/c(=C/c3ccco3)c(N)c(C#N)n2C(=O)C(c2ccco2)S1 (stereo unspecified)
2. Cc1ccc(C)c(N2CCN(Cc3nnnn3Cc3ccc(F)cc3)CC2)c1

1: 14.9% (inactive); 2: 13.1% (inactive)
